tested on: MS2 coat protein; assay: apparent KD of MS2 coat protein; designed switch direction (-1 OFF switch, 1 ON switch): -1; higher = weaker reporter binding; details: input ligand: FMN 200 uM
Each entry below carries its reported apparent KD of MS2 coat protein.

# Record Sequence, Measure Unit, apparent KD of MS2 coat protein
data = [
    ("UCAUGUCCAGAGGAUAUGUAGCGGGAGACCGCAACAGAAGGCUGGACAUGAGGAUCACCCAUGUGCGCCUUCGA [jl-ex3-4.27 ViennaUCT mod] (Eterna round: R97, puzzle: Exclusion 6)", "nM", 35.9),
    ("GCAGCAUUGUUUACUAACAGUUACAUGAGGAUCACCCAUGUUCAGGAUAUGGUCUGGAUUACAGGCCAGAAGGGAACAAGCUGC [Eli exng3 - 031] (Eterna round: R96, puzzle: Exclusion NG 3)", "nM", 9.09),
    ("AAAAGGCAGGGAGGAUAUGCUUGCCUGGGUCGUCUUCAAACAUGAGGAUCACCCAUGUAGUCGACGCAGAAGGCCCUCAAAGAA [Mat - Exclusion NG 2 - Mod of JL - D62] (Eterna round: R96, puzzle: Exclusion NG 2)", "nM", 37.7),
    ("CUCGAGUUAGGAUAUGGCGGCGACUGUGUUCGCAGAUCGCACCAGAAGGAACAUGAGGAUCACCCAUGUGACGG [Eternabot (L1) Solution 42] (Eterna round: R97, puzzle: Exclusion 4)", "nM", 348),
    ("UGUUGUUACGCAGGAUAUGAGGAUCACCCAUAUCAGGAUAUCGAAAGAGAAUUUCUGAGGAUCACCCAGAAGGGCGGGUUAACA [pwkr exNG2 2xF5 2xFMN.37] (Eterna round: R96, puzzle: Exclusion NG 2)", "nM", 125),
    ("AUAAUUAAUCGAGGAUAUCAGCACGAUUAGUGCUGAGAAGGCGACAUGAGGAUCACCCAUGUGAUCAAUUAAUAUUAAUAUUAU [ENG1/11-C1] (Eterna round: R96, puzzle: Exclusion NG 1)", "nM", 1630),
    ("UAGUUAAUCACAGGAUAUCGCCUCUUAUUACAUGAGGAUCACCCAUGUUUAGUUAGUUACAUGUUCGAGAAGGGUGUUGUAGUU [JR_ExcNG2_Sub042] (Eterna round: R96, puzzle: Exclusion NG 2)", "nM", 714),
    ("AAACGGCAGGGAGGAUAUGCUUACCUGGGUCGUCUUCGAACAUGAGGAUCACCCAUGUAGUCGACGCAGAAGGCCCUCAAAGCC [JL ViennaUCT Ontiis mod 2] (Eterna round: R96, puzzle: Exclusion NG 2)", "nM", 47.4),
    ("GAUUAAUUAAUUAAUUAAUACAUGAGGAUCACCCAUGUAAUUUAAGAUCCUUAUACAAGCUUUGAUCUCGUCUUAUA [Stov1/5-A2] (Eterna round: R97, puzzle: Sensor, turn-off variant 1)", "nM", 163),
    ("UAAUUGAUUAAUAGAUUAUACAUGAGGAUCACCCAUGUAGAUCCUACGUGCCAUUUAAGUAGCUCGUCUUAUUAUUA [Sensor-V1 #65] (Eterna round: R97, puzzle: Sensor, turn-off variant 1)", "nM", 59.4),
    ("CCGGCAUGGUGCGGUAGUUGUACAACAUGAGGAUCACCCAUGUAGGAUAUGCGCGUGGUCACGCCGCAGAAGGACAACGUAUGG [Random, 25% A] (Eterna round: R96, puzzle: Exclusion NG 3)", "nM", 668),
    ("UUCGUGCAGCUUUGCUGUACGCGUACAUGAGGAUCACCCAUGUAGGAUAUGGUAGGCAAAGCUUACUAGAAGGAUAUGGUGAGC [Mat - Exclusion NG 3 - Mod of JL - D79] (Eterna round: R96, puzzle: Exclusion NG 3)", "nM", 30.3),
    ("GUCUAGCGAGGAUAUUGCAGACGAAACAUGAGGAUCACCCAUGUGGCCUUGUGCCGUGUGCAAGAAGGCGCGAGGC [Gelelaor] (Eterna round: R97, puzzle: Exclusion 5)", "nM", 297),
    ("AAUAAGUAUGUGAGGAUAUUGAGGAGGAGGAGGGACAAGAAGGCACAUGAGGAUCACCCAUGUAGGAAAGGACG [JR_BMEx4_Sub002] (Eterna round: R97, puzzle: Brourd's mod of Exclusion 4)", "nM", 46.9),
    ("ACCAUUUUACGAUAUGUGCACAUGAGGAUCACCCAUGUUCCGAUAAACAUUUGAAGUACAGCAGGCUGCUCGAUCUG [Eternabot (L2) Solution 45] (Eterna round: R97, puzzle: Sensor, turn-off variant 1)", "nM", 94.2),
    ("ACUUAUUGAGGAUAUACAUAAAUUUACAUGAGGAUCACCCAUGUUCUUCUAUGUAUAUAUGUAGAAGGCAGAAGAU [Mat - Exclusion 5 - JL Mod - D32] (Eterna round: R97, puzzle: Exclusion 5)", "nM", 29.2),
    ("CGCUGGACAGGAUAUGUUCUUGGGCACUUGAGGAUCACCCAAGUCAUCAAGAAAACAGGCACAGAAGGGUUUAUGG [salish99_ex5_r4_020] (Eterna round: R97, puzzle: Exclusion 5)", "nM", 32.1),
    ("UAAGAUUACCGAGGAUAUGGUAGUUUCUAUUAACCAGAAGGCGGACUCAACAUGAGGAUCACCCAUGUAUAAAGGGUAUUAGAU [JR_ExcNG1_Sub041] (Eterna round: R96, puzzle: Exclusion NG 1)", "nM", 91.7),
]

FYI, the data here is from the supplement of paper PMC9170038.
